System: Streptococcus pneumoniae
Test: Antibacterial activity against erythromycin-resistant Streptococcus pneumoniae B1 expressing erm gene by broth microdilution method
Assay type: functional
Quick rule for you: MIC under 4 µg/mL gets MET, anything else gets NOT MET.

Record excerpt, results attached:
[
  {
    "structureSmilesString": "CC[C@H]1OC(=O)[C@H](C)[C@@H](O[C@H]2C[C@@](C)(OC)[C@@H](OC(=O)NCCCCNC(=O)c3ccc(OC)cc3)[C@H](C)O2)[C@H](C)[C@@H](O[C@@H]2O[C@H](C)C[C@H](N(C)C)[C@H]2O)[C@](C)(O)C[C@@H](C)CN(C)[C@H](C)[C@@H](OC(=O)NCCc2ccc(OC)cc2)[C@]1(C)O",
    "labelClass": "MET"
  },
  {
    "structureSmilesString": "CC[C@H]1OC(=O)[C@H](C)[C@@H](O[C@H]2C[C@@](C)(OC)[C@@H](OC(=O)NCCCCNC(=O)c3cc([N+](=O)[O-])cc([N+](=O)[O-])c3)[C@H](C)O2)[C@H](C)[C@@H](O[C@@H]2O[C@H](C)C[C@H](N(C)C)[C@H]2O)[C@](C)(O)C[C@@H](C)CN(C)[C@H](C)[C@@H](OC(=O)NCCc2ccc(OC)cc2)[C@]1(C)O",
    "labelClass": "MET"
  },
  {
    "structureSmilesString": "CC[C@H]1OC(=O)[C@H](C)[C@@H](O[C@H]2C[C@@](C)(OC)[C@@H](OC(=O)NCCCCNC(=O)c3cc([N+](=O)[O-])cc([N+](=O)[O-])c3)[C@H](C)O2)[C@H](C)[C@@H](O[C@@H]2O[C@H](C)C[C@H](N(C)C)[C@H]2O)[C@](C)(O)C[C@@H](C)CN(C)[C@H](C)[C@@H](OC(=O)NCc2ccc(F)c(F)c2)[C@]1(C)O",
    "labelClass": "MET"
  },
  {
    "structureSmilesString": "CC[C@H]1OC(=O)[C@H](C)[C@@H](O[C@H]2C[C@@](C)(OC)[C@@H](OC(=O)NCCNC(=O)c3cc([N+](=O)[O-])cc([N+](=O)[O-])c3)[C@H](C)O2)[C@H](C)[C@@H](O[C@@H]2O[C@H](C)C[C@H](N(C)C)[C@H]2O)[C@](C)(O)C[C@@H](C)CN(C)[C@H](C)[C@@H](OC(=O)NCCc2ccccc2)[C@]1(C)O",
    "labelClass": "MET"
  },
  {
    "structureSmilesString": "CC[C@H]1OC(=O)[C@H](C)[C@@H](O[C@H]2C[C@@](C)(OC)[C@@H](OC(=O)NCCCCNC(=O)c3ccc(OC)cc3)[C@H](C)O2)[C@H](C)[C@@H](O[C@@H]2O[C@H](C)C[C@H](N(C)C)[C@H]2O)[C@](C)(O)C[C@@H](C)CN(C)[C@H](C)[C@@H](OC(=O)NCCc2ccccc2)[C@]1(C)O",
    "labelClass": "MET"
  }
]

Exam item: # TODO verify MIC < 4 µg/mL strictly for this compound: CC[C@H]1OC(=O)[C@H](C)[C@@H](O[C@H]2C[C@@](C)(OC)[C@@H](O)[C@H](C)O2)[C@H](C)[C@@H](O[C@@H]2O[C@H](C)C[C@H](N(C)C)[C@H]2O)[C@](C)(O)C[C@@H](C)CN(C)[C@H](C)[C@@H](O)[C@]1(C)O
Marked response: NOT MET

Exam item: # TODO verify MIC < 4 µg/mL strictly for this compound: CC[C@H]1OC(=O)[C@H](C)[C@@H](O[C@H]2C[C@@](C)(OC)[C@@H](OC(=O)NCCCCNC(=O)c3ccc(OC)c(OC)c3)[C@H](C)O2)[C@H](C)[C@@H](O[C@@H]2O[C@H](C)C[C@H](N(C)C)[C@H]2O)[C@](C)(O)C[C@@H](C)CN(C)[C@H](C)[C@@H](OC(=O)NCCc2ccccc2)[C@]1(C)O
Marked response: NOT MET
